Molecular target: ATP-dependent translocase ABCB1 (Homo sapiens)
Sequence (P08183 whole entry): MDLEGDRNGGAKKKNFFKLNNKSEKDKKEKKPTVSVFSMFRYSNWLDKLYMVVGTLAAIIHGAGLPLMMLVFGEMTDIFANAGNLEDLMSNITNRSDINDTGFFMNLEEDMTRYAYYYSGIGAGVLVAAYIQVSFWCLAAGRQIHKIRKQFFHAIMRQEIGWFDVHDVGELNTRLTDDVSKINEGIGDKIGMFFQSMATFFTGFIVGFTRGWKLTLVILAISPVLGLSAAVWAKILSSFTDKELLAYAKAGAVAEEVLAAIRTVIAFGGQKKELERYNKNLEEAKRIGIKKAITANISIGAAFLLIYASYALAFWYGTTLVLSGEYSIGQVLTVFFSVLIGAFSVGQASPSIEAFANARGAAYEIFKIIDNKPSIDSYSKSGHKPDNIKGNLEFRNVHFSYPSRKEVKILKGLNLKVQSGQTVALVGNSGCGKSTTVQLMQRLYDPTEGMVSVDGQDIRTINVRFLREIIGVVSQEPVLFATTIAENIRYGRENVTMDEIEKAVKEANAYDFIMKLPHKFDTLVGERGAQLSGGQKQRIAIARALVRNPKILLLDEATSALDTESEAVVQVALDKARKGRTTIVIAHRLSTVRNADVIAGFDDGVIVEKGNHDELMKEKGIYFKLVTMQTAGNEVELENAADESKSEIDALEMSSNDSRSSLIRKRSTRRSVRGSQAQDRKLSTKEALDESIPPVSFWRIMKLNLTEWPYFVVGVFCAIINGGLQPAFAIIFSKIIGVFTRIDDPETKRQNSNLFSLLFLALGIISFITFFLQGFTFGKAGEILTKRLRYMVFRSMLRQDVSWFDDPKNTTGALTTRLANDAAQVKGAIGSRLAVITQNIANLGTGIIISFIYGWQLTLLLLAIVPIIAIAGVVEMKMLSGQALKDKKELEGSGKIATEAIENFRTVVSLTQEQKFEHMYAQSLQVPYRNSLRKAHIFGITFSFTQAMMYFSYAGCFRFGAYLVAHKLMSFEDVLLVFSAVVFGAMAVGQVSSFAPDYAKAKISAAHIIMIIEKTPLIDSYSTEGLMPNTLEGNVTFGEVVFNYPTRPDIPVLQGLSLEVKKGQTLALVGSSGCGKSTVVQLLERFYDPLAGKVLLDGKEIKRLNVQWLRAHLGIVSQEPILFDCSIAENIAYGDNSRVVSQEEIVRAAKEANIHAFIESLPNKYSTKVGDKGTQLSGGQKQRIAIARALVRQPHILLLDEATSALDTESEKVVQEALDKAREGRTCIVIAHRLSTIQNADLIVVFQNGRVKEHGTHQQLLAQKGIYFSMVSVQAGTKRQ
Experiment: Inhibition of P-gp in human MCF7/ADR cells assessed as reversal of multidrug resistance by measuring relative enhancement intensity for adriamycin-induced cytotoxicity at 10 uM after 48 hrs by SRB colorimetric assay
Assay type: cell-based
Set-up: scale not given: the % may be the effect or the level left
Details: nci/adr-res
Readout kind: Activity (%)
The figure you give is taken to be in %; do not add the unit.

API: value(readout= Activity, system= ATP-dependent translocase ABCB1 (Homo sapiens), query= "C=C1CC[C@H]2[C@@H]([C@@H]3O[C@]4(C[C@H](C)[C@H](OC(=O)c5ccccc5)[C@@H]4[C@H]1OC(=O)c1ccccc1)C(=O)[C@H]3C)C2(C)C" ) 4.3

Same question for "C=C1CC[C@H]2[C@@H](/C=C(\C)C(=O)[C@@]3(O)C[C@H](C)[C@H](O)[C@@H]3[C@H]1OC(=O)CCc1ccccc1)C2(C)C" please. 11.6

Same question for "C=C1CC[C@H]2[C@@H](/C=C(\C)C(=O)[C@@]3(O)C[C@H](C)[C@H](OC(=O)CCCCC)[C@@H]3[C@H]1OC(=O)CCCCC)C2(C)C" please. 5.8

Same question for "C=C1CC[C@H]2[C@@H](/C=C(\C)C(=O)[C@@]3(O)C[C@H](C)[C@H](O)[C@@H]3[C@H]1OC(=O)CC(C)C)C2(C)C" please. 4.7

Same question for "C=C1CC[C@H]2[C@@H](/C=C(\C)C(=O)[C@@]3(O)C[C@H](C)[C@H](OC(=O)Cc4cccc5ccccc45)[C@@H]3[C@H]1OC(=O)Cc1cccc3ccccc13)C2(C)C" please. 10.1

###

Target: UniProt:P08183
Assay: Inhibition of P-gp in human MCF7/ADR cells assessed as reversal of multidrug resistance by measuring relative enhancement intensity for adriamycin-induced cytotoxicity at 10 uM after 48 hrs by SRB colorimetric assay
Format: cell-based
Parameters: scale not given: the % may be the effect or the level left
Conditions: nci/adr-res
Readout kind: Activity

Please give the measured Activity for this compound: "C=C1CC[C@H]2[C@@H]([C@@H]3O[C@]4(C[C@H](C)[C@H](OC(=O)CCc5ccccc5)[C@@H]4[C@H]1OC(=O)CCc1ccccc1)C(=O)[C@H]3C)C2(C)C" 6.9%

Same question for "C=C1CC[C@H]2[C@@H](/C=C(\C)C(=O)[C@@]3(O)C[C@H](C)[C@H](O)[C@@H]3[C@H]1OC(=O)c1cccnc1)C2(C)C" please. 10.3%

Same question for "C=C1CC[C@H]2[C@@H](/C=C(\C)C(=O)[C@@]3(O)C[C@H](C)[C@H](O)[C@@H]3[C@H]1OC(=O)c1ccccc1)C2(C)C" please. 7.5%

###

Target: UniProt P08183
Test: Inhibition of P-gp in human MCF7/ADR cells assessed as side scatter count of cells at 20 uM pre-treated for 1 hr at 37 degC followed by incubation with Rh123 for 1 hr by flow cytometry (reference value: 100.6 No unit)
Format: cell-based
Details: nci/adr-res
Please go through the items and note down their Activity.
Simply state the number, no unit and no words.

API: value(readout= Activity, system= UniProt P08183, query= COc1ccc(CCN(C)CCCC(C#N)(c2ccc(OC)c(OC)c2)C(C)C)cc1OC (centres undefined) ) 92.2

Same question for "C=C1CC[C@H]2[C@@H](/C=C(\C)C(=O)[C@@]3(O)C[C@H](C)[C@H](OC(=O)CC)[C@@H]3[C@H]1OC(=O)Cc1cccc3ccccc13)C2(C)C" please. 100.9

Same question for "C=C1CC[C@H]2[C@@H](/C=C(\C)C(=O)[C@@]3(O)C[C@H](C)[C@H](OC(=O)c4ccccc4)[C@@H]3[C@H]1OC(=O)c1ccccc1)C2(C)C" please. 102

Same question for "C=C1CC[C@H]2[C@@H](/C=C(\C)C(=O)[C@@]3(O)C[C@H](C)[C@H](O)[C@@H]3[C@H]1OC(=O)Cc1cccc3ccccc13)C2(C)C" please. 94.2
